tested on: Peripheral blood mononuclear cells (PBMC); format: cell-based; settings: human, 7 days
Listed here: items and their measured Proliferation assay PBMC TD50.
Give the value, in units of µM, as a plain number.

Some entries whose results are on file:
1. O=C(OCCC1CCCCC1)c1nc(-c2ccccn2)nc(O)c1O [Compound 12]	4
2. CC(=O)Nc1ccc(-c2nc(O)c(O)c(C(=O)N[C@H](C)C3CCCCC3)n2)nc1 [Compound 62]	1.87
3. O=C(NCC1CC1)c1nc(-c2ccccn2)nc(O)c1O [Compound 3]	6
4. O=C(NC1CCCCC1)c1nc(-c2ccccn2)nc(O)c1O [Compound 4]	4.8

Turning now to a further compound:
Ask: Need Proliferation assay PBMC TD50 of O=C(OCCCC1CCCCC1)c1nc(-c2ccccn2)nc(O)c1O [Compound 14] , thanks.
Reply: 5.6
